Data origin: PubChem BioAssay AID256

test system: CD2F1 mice, L1210 leukemia ip, survival T/C; assay: NCI In Vivo Anticancer Drug Screen. Data for tumor model L1210 Leukemia (intraperitoneal) in CD2F1 (CDF1) mice; conditions: endpoint: mean survival time; dose: 12.5 mg/kg/injection; schedule: Q04DX003 (ip); vehicle: saline; higher = longer survival
Toxic doses and inconclusive results are not listed.
MEASUREMENT_TYPE: T/C

Answered examples (3):
| COMPOUND | T/C |
| --- | --- |
| CCOC(=O)N(Cl)Cl | 102 % of control |
| Fc1ccc(N2CCNCC2)cc1 | 101 % of control |
| O=C1C=CC(=O)N1CN1CCOCC1 | 95 % of control |

Now for the compound whose T/C we want.
Ask: For O=C(O)C(O)C(O)C(O)CO.[Zn+2] (centres undefined) , write its T/C.
Result: 95 % of control

###

test system: CD2F1 mice, L1210 leukemia ip, survival T/C; assay: NCI In Vivo Anticancer Drug Screen. Data for tumor model L1210 Leukemia (intraperitoneal) in CD2F1 (CDF1) mice; conditions: endpoint: mean survival time; dose: 100.0 mg/kg/injection; schedule: Q04DX002 (ip); vehicle: saline with Tween-80; higher = longer survival
Inconclusive results and toxic doses are left out.
Form field: T/C (one value per entry).

| MOLECULE | MEASUREMENT_TYPE | RESULT |
| --- | --- | --- |
| N#C/C(=C\C1CCC2OCOC2C1)C1CCC([N+](=O)[O-])CC1 (stereo not given) | T/C | 97 % of control |
| Nc1ccc(S(=O)(=O)c2ccc(Nc3ccccc3)c(N)c2)cc1 | T/C | 97 % of control |
| CCOC(=O)c1c(-c2ccccc2)[nH]c(C)cc1=O | T/C | 100 % of control |
| [O-]/[N+](=C\Cc1ccccc1)c1ccccc1 | T/C | 90 % of control |

Ask: Consider the molecule `CCCCC(=O)/C=C/c1ccccc1` . State its measured T/C.
Result: 87 % of control

Ask: Give T/C for CC(C)(C)C(=O)CC1(O)C(=O)Nc2cccc(C(F)(F)F)c21 (stereo not given)
Result: 102 % of control

Ask: # return recorded T/C for input `NC(=S)N/N=C/c1ccc(I)cn1`
Result: 93 % of control

Ask: Recall and state the measured T/C for `CCCCOc1ccc(Cl)cc1` .
Result: 90 % of control

Ask: Report measured T/C; entry is `CCOCCNc1ccc([N+](=O)[O-])cc1[N+](=O)[O-]`
Result: 91 % of control

Ask: For `CCCCCCCCCCCC(=O)NC(=S)Nc1cc(Cl)ccc1Cl` , write its T/C.
Result: 98 % of control

Ask: Determine its reported T/C: OCC1C2C=CC(c3ccccc32)C1CO (stereo not given)
Result: 88 % of control

Ask: Give a short answer stating reported T/C for `Oc1ccc(/C=N/NC(=S)Nc2cccnc2)nc1` .
Result: 87 % of control

Ask: Consider the molecule Cc1ccc(/C(=N\Nc2ccc([N+](=O)[O-])cc2[N+](=O)[O-])C2CC2c2ccccc2)cc1 (stereo not given) . State its measured T/C.
Result: 105 % of control

Ask: Entry `COc1ccccc1NC(=O)Oc1ccc(Cl)cc1Cl` needs its T/C filled in; supply it.
Result: 103 % of control

Ask: Tell us which T/C value is on record for CCOC(=O)C/C(C)=C/c1ccccc1 (tested in a mixture with another compound)
Result: 98 % of control

Ask: Fill in T/C for record `Oc1ccccc1C=NCc1ccccc1.Oc1ccccc1C=NCc1ccccc1.[Cu]`
Result: 100 % of control

Ask: Annotate the molecule O=C(O)C1C2C=CC3(O2)C(=O)N(Cc2ccccc2)C(=O)C13 (stereo not given) with its measured T/C.
Result: 95 % of control

Ask: State its T/C: `O=C(N/N=C/c1ccc(O)cc1)c1ccncc1`
Result: 91 % of control

Ask: Tell us which T/C value is on record for O=S1(=O)CC2(OCCO2)C1Cl (stereo not given)
Result: 95 % of control

Ask: Look up and state reported T/C for `CCNC(=O)C(=O)NCC`
Result: 103 % of control

Ask: Retrieve T/C measured for `COc1ccc([N+](=O)[O-])cc1NC(=O)Nc1ccccc1C` and print it.
Result: 92 % of control

Ask: // fetch T/C given entry `CN(C)C(=O)SCCSC(=O)N(C)C`
Result: 106 % of control

Ask: Could you please provide reported T/C for `C[P+](CP(=O)(c1ccccc1)c1ccccc1)(c1ccccc1)c1ccccc1` ? Thanks!
Result: 96 % of control

Ask: Given `O=S1(=O)OC2(CCCCC2)c2ccccc21` , respond with its T/C.
Result: 96 % of control

Ask: Fill in T/C for record COc1cc(CCN2CC3C(C(=O)O)C4C=CC3(C2)O4)ccc1OCc1ccccc1 (stereo not given)
Result: 95 % of control

###

Tested on: CD2F1 mice, L1210 leukemia ip, survival T/C
Test: NCI In Vivo Anticancer Drug Screen. Data for tumor model L1210 Leukemia (intraperitoneal) in CD2F1 (CDF1) mice
Conditions: endpoint: mean survival time; dose: 200.0 mg/kg/injection; schedule: Q04DX002 (ip); vehicle: saline with Tween-80; higher = longer survival
Method: The antitumor activity of compounds was measured in mice bearing transplantable tumors. Survival or tumor size were measured and the results are expressed as the measurement made in the treated group (T) divided by the measurement made in the vehicle treated control group (C). The tumor model used in this assay is L1210 Leukemia (intraperitoneal) in CD2F1 (CDF1) mice
Toxic doses and inconclusive results are not listed.
MEASUREMENT_TYPE: T/C

Here is how some molecules turned out for T/C.
| MOLECULE | RESULT |
| --- | --- |
| CCOC(=O)C/C(C)=C/c1ccccc1 (tested in a mixture with another compound) | 90 % of control |
| O=C(CCCN1CCC(O)(c2ccc(Cl)cc2)CC1)c1ccc(N2CCC(O)CC2)cc1 | 93 % of control |

Now for the molecule whose T/C we want.
Ask: Name the recorded T/C of the item `Cc1ccccc1NC(=O)Oc1cccc(OC(=O)c2ccccc2)c1` in your answer.
Result: 103 % of control

###

Overview of reported T/C across a group of compounds:
test system: CD2F1 mice, L1210 leukemia ip, survival T/C; experiment: NCI In Vivo Anticancer Drug Screen. Data for tumor model L1210 Leukemia (intraperitoneal) in CD2F1 (CDF1) mice; conditions: endpoint: mean survival time; dose: 50.0 mg/kg/injection; schedule: Q01DX005 (ip); vehicle: water; higher = longer survival
Toxic doses and inconclusive results are not listed. Residues, ends and D or L forms follow the SMILES beside them. *: point of attachment. Cbz = O=C(OCc1ccccc1)*; Bn = c1ccc(C*)cc1; βAla = NCCC(=O)O

Would you please look over these solved cases?
| COMPOUND | T/C |
| --- | --- |
| Nc1ncnc2cc3c(cc12)ncn3C1OC(CO)C(O)C1O (stereo unspecified) | 104 % of control |
| COC(=O)C(CSCc1ccccc1)NC(=O)C(CSCc1ccccc1)NC(=O)CCNC(=O)OCc1ccccc1 (stereo unspecified) ({Cbz-βAla}-Cys(Bn)-Cys(Bn)-OMe; configuration not given here) | 98 % of control |
| CSc1ncnc2nn(C3OC(CO)C(O)C3O)cc12 (stereo unspecified) | 103 % of control |
| O=c1[nH]c(=O)n2c3c1nnn3CC1OC2C(O)C1O (stereo unspecified) | 95 % of control |
| CCN(CC)Cc1cn(C2CC(O)C(CO)O2)c(=O)[nH]c1=O (stereo unspecified) | 91 % of control |

# next compound below
Ask: Specify T/C for CC(=O)Nc1cc2c(ncn2C2OC(CO)C(O)C2O)c(Br)n1 (stereo unspecified) and stop.
Result: 98 % of control

###

test system: CD2F1 mice, L1210 leukemia ip, survival T/C; assay: NCI In Vivo Anticancer Drug Screen. Data for tumor model L1210 Leukemia (intraperitoneal) in CD2F1 (CDF1) mice; conditions: endpoint: mean survival time; dose: 400.0 mg/kg/injection; schedule: Q04DX003 (ip); vehicle: saline; higher = longer survival
Toxic doses and inconclusive results are not listed.
Measured T/C, listed per entry.

In the examples that follow, each entry is paired with its recorded T/C.
| COMPOUND | RESULT |
| --- | --- |
| OCCN1CCOCC1 | 97 % of control |
| NC(CO)CO | 98 % of control |
| O=c1cc[nH]cc1 | 95 % of control |
| O=C1CCC(=O)N1O | 98 % of control |
| CCCC(N(C)C)P(=O)(O)O (stereo not drawn) | 101 % of control |

Ask: Identify T/C associated with the compound `Nc1cc(=O)[nH]c(=S)n1-c1ccccn1`
Result: 97 % of control

Ask: Quickly give me recorded T/C for OC(Cc1ccnc2ccccc12)C(Cl)(Cl)Cl (stereo not drawn)
Result: 97 % of control

Ask: Indicate the recorded T/C value for this compound: `C=CC(=O)NC12CC3CC(CC(C3)C1)C2`
Result: 101 % of control
